test: Toceranib plasma concentrations (LC-MS/MS) in dogs with solid tumors; type: in vivo, dog; details: dog, plasma, oral, dose ranges 2.4-2.9 mg/kg EOD, by day 30; read-out: mean presumed Cmax
measured_property: Cmax

[in] Request the reported Cmax associated with Cc1[nH]c(/C=C2\C(=O)Nc3ccc(F)cc32)c(C)c1C(=O)NCCN1CCCC1 [toceranib, Toceranib phosphate]
[out] 100 to 200 ng/mL

###

assay: Toceranib plasma concentrations (LC-MS/MS) in dogs with solid tumors; type: in vivo, dog; details: dog, plasma, oral, all dose ranges above 2.4 mg/kg; days 0, 7, 14, 30; read-out: median Cmax
measured_property: Cmax

[in] Request the reported Cmax associated with Cc1[nH]c(/C=C2\C(=O)Nc3ccc(F)cc32)c(C)c1C(=O)NCCN1CCCC1 [toceranib, Toceranib phosphate]
[out] > 40 ng/mL
